Values compiled from patent US20170342144A1.

# System tested: T1, human TGFβ1 (human, UniProt P01137 279-390)
# T1 construct: also called TGFβ1 homodimer
# T1 sequence (P01137 279-390 limits assumed): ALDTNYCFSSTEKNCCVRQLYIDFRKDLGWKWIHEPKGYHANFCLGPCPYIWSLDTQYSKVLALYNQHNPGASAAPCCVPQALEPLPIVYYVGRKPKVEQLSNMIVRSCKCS
# Test summary: Biacore off-rate vs wt GC1008, 50 nM
# Protocol: Plasmids encoding either the GC1008 heavy chain or light chain were used as a template in PCR-based mutagenesis reactions. […] Purified variant antibody samples were analyzed in duplicate on a Biacore® 3000 (GE Healthcare) at 50 nM concentrations, using the 100 RU level TGFβ1, 2, and 3 immobilized surfaces. […]
Measure name: kd var/kd wt
Answer using only a numeral; do not append any unit.

[ask] Can you look up the measured kd var/kd wt of N32D (antibody, V domains shown, GC1008 IgG4 variant) VH: QVQLVQSGAEVKKPGSSVKVSCKASGYTFSSDVISWVRQAPGQGLEWMGGVIPIVDIANYAQRFKGRVTITADESTSTTYMELSSLRSEDTAVYYCASTLGLVLDAMDYWGQGTLVTVSS VL: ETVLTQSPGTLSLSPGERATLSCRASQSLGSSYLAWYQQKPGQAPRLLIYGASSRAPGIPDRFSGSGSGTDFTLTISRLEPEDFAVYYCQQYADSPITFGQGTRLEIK for me?
[reply] 1.3

[ask] Quick one: kd var/kd wt of I54L (antibody, V domains shown, GC1008 IgG4 variant) VH: QVQLVQSGAEVKKPGSSVKVSCKASGYTFSSNVISWVRQAPGQGLEWMGGVIPLVDIANYAQRFKGRVTITADESTSTTYMELSSLRSEDTAVYYCASTLGLVLDAMDYWGQGTLVTVSS VL: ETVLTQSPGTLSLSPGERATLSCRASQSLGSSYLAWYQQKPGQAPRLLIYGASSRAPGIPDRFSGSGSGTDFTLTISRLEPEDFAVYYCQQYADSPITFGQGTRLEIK ?
[reply] 1.2

[ask] Given the entry E74P (antibody, V domains shown, GC1008 IgG4 variant) VH: QVQLVQSGAEVKKPGSSVKVSCKASGYTFSSNVISWVRQAPGQGLEWMGGVIPIVDIANYAQRFKGRVTITADPSTSTTYMELSSLRSEDTAVYYCASTLGLVLDAMDYWGQGTLVTVSS VL: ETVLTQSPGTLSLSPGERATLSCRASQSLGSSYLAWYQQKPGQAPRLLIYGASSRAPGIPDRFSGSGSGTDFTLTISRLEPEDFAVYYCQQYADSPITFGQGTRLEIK , report its measured kd var/kd wt.
[reply] 0.8
